# assayedTarget: Cbl-b (aa36-427) (Homo sapiens, UniProt Q13191)
# Construct: Cbl-b (aa36-427, in-house); made in house
# Sequence (Q13191 36-427): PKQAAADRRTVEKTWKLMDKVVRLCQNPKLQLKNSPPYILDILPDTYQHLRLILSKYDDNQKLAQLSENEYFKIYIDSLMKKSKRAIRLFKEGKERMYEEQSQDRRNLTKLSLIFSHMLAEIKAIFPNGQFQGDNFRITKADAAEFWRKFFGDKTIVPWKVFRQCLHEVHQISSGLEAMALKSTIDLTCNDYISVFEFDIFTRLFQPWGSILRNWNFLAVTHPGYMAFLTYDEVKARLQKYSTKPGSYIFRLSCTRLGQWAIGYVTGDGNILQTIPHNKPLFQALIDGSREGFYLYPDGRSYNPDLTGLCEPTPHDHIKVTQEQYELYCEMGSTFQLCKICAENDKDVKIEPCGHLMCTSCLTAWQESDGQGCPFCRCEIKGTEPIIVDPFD
# assayExplanation: Co-expressed Cbl-b with BirA biochemical assay (CBLB/E2-Ub binding, HTRF)
# measurementConditions: 0.6 nM Cbl-b co-expressed with BirA, HTRF; read-out: co-express CBLB/E2-Ub-binding assay IC50
propertyName: IC50

[[record]]
smilesdata = "Cc1cnc2c(C(=O)Nc3cccc([C@]4(c5nncn5C)C[C@@H](C)C4)c3)cc(CN[C@@H](C)C3CCC3)cn12"
result = "0.5 nM"

[[record]]
smilesdata = "C[C@H](NCc1cc(C(=O)Nc2cccc([C@]3(c4nncn4C)C[C@@H](C)C3)c2)nc2cc[nH]c12)C1CC1"
result = "0.7 nM"

[[record]]
smilesdata = "Cc1cnc2c(C(=O)Nc3cncc([C@]4(c5nncn5C)C[C@@H](C)C4)c3)cc(CNCC3CCC3)cn12"
result = "1.5 nM"

[[record]]
smilesdata = "Cn1cnnc1[C@]1(c2cccc(NC(=O)c3cc(CNCC4CCCCC4)c4c(n3)C(C)(C)CC4)c2)C[C@H](CC#N)C1"
result = "2 nM"


###

# assayedTarget: Cbl-b (aa36-427) (Homo sapiens)
# Construct: Cbl-b (aa36-427, in-house); made in house
# assayExplanation: Biotin-labelled Cbl-b biochemical assay (CBLB/E2-Ub binding, HTRF)
# measurementConditions: 5.0 nM biotin labelled Cbl-b
pIC50: −log10 of the molar value.
Could you label it met if measured pIC50 is 8 or higher, and not met otherwise?

[[record]]
smilesdata = "C[C@@H]1CN(Cc2cc(C(=O)Nc3cccc([C@]4(c5nncn5C)C[C@@H](CC#N)C4)c3)c3nccn3c2)CCO1"
category = "not met"

[[record]]
smilesdata = "C[C@H]1CCCN(Cc2cc(C(=O)Nc3cccc([C@]4(Cc5nncn5C)C[C@@H](C#N)C4)c3)c3nccn3c2)C1"
category = "met"

[[record]]
smilesdata = "C[C@H]1CCCN(Cc2cc(C(=O)Nc3cccc([C@]4(c5nncn5C)C[C@@H](CC#N)C4)c3)nc3c2CCC3(F)F)C1"
category = "met"

[[record]]
smilesdata = "C[C@H]1CCCN(Cc2cc(C(=O)Nc3cccc([C@]4(c5nncn5C)C[C@@H](C)C4)c3)c3nccn3c2)C1"
category = "met"


###

# maps each entry to its pIC50
# assayedTarget: Cbl-b (aa36-427) (Homo sapiens, UniProt Q13191)
# Construct: Cbl-b (aa36-427, in-house); made in house
# assayExplanation: Co-expressed Cbl-b with BirA biochemical assay (CBLB/E2-Ub binding, HTRF)
# measurementConditions: 0.6 nM Cbl-b co-expressed with BirA, HTRF; read-out: co-express CBLB/E2-Ub-binding assay IC50
pIC50: −log10 of the molar value.
propertyName: pIC50

[[record]]
compound = "C[C@@H]1CN(Cc2cc(C(=O)Nc3cccc([C@]4(c5nncn5C)C[C@@H](CC#N)C4)c3)nc3cc[nH]c23)C[C@H](C)C1(F)F"
assayedtarget = "Cbl-b (aa36-427) (Homo sapiens, UniProt Q13191)"
propertyname = "pIC50"
numericreadout = 7.99

[[record]]
compound = "Cn1cnnc1CC1(c2cccc(NC(=O)c3cc(CN4CCCC(C(F)(F)F)C4)c4[nH]ccc4n3)c2)COC1 (stereo not drawn)"
assayedtarget = "Cbl-b (aa36-427) (Homo sapiens, UniProt Q13191)"
propertyname = "pIC50"
numericreadout = 7.59

[[record]]
compound = "C[C@H](NCc1cc(C(=O)Nc2cccc([C@]3(c4nncn4C)C[C@@H](C)C3)c2)c2ncc(F)n2c1)C1CCC1"
assayedtarget = "Cbl-b (aa36-427) (Homo sapiens, UniProt Q13191)"
propertyname = "pIC50"
numericreadout = 9.05


Where these numbers come from: patent US20250163047A1
